Please provide measured melting point for the entries that follow.

Cc1cn2cc(-c3cc4ccc(CCCN5CCNCC5)cc4oc3=O)nc2c(C)n1 ... 145 to 153 °C
Cc1csc2nc(-c3cc4ccc(N5C[C@@H](C)N[C@@H](C)C5)cc4oc3=O)cn12 ... 211 to 215 °C
CN1CCN(c2ccc3cc(-c4ccn(-c5ccccc5)n4)c(=O)oc3c2)CC1 ... 152 to 159 °C
Cc1cn2cc(-c3cc4ccc(OC5CCN(C(CO)CO)CC5)cc4oc3=O)nc2c(C)n1 ... 206 to 210 °C
Cc1cc2cc(-c3cc4ccc(N5CCN(C)CC5)cc4oc3=O)oc2c(C)n1 ... 229 to 232 °C
Cc1cccc2nc(-c3cc4ccc(N5CCNCC5)cc4oc3=O)cn12 ... 239 to 249 °C
CCN1CCN(c2ccc3cc(-c4cn5cc(C)nc(C)c5n4)c(=O)oc3c2)CC1 ... 215 to 217 °C

Let's switch to this molecule now.
Ask: Can you look up the measured melting point of O=c1oc2cc(N3CCNCC3)ccc2cc1-c1cn2ccsc2n1 for me?
Result: 275 to 280 °C
